Catalogue of Hb concentration readings, one per entry.
System: hemoglobin-haptoglobin complex
test summary: Stability of hemoglobin (as hemoglobin-haptoglobin complex) in samples preserved at 37° C. in preservation solution containing 1 unit/L haptoglobin, Hb measured by latex agglutination method (Examples 1 to 7)
Parameters: species or system human
run conditions: Feces 3; arylboronic acid 15 mmol/L; 37° C., 7 days
Write the answer as a number in µg/L, unit excluded.

The cases that follow already have their Hb concentration on record.
> print(dat)
                compound  units.label  recorded.value
1  O=C(O)c1cccc(B(O)O)c1         µg/L             213
2  O=C(O)c1ccc(B(O)O)cc1         µg/L             219

I'm curious: which Hb concentration was measured for O=C(O)c1ccccc1B(O)O tested on hemoglobin-haptoglobin complex?
124

Further, for OB(O)c1cccc(O)c1 [3H-PBA, 3-hydroxyphenylboronic acid] ?
213

FYI, the data here is from patent US12215140B2.
